Experimental Readout: melting point (°C)

Cc1nc(-c2ccccc2)c(C)c(O)c1C(=O)Nc1nccs1 ... 266

a. CCOC(=O)C(C)Oc1ccc(N(C)c2ncnc3cc(Cl)ccc23)cc1 (centres undefined)
b. O=C1CN(c2ccccc2)C(=S)N1c1ccccc1
c. CCC(=O)c1ccc(OCCCCCCCc2cc(C)no2)cc1
d. CCCCNc1cc(C(=O)OC)cc(S(N)(=O)=O)c1Oc1ccccc1
List items by melting point in falling order. Please list the labels according to the requested order. b, d, a, c

---

Reported values of melting point for individual entries

CCC1CCCN(C(=O)C2Cc3ccccc3N2c2ccc(=O)n(C)n2)C1 (stereo not given) ... 150 to 154 °C
Cc1cc([N+](=O)[O-])cc(C)c1-c1ccc(-c2c(C)cc([N+](=O)[O-])cc2C)o1 ... 156 to 158 °C
O=S1(=O)c2cccc3cccc(c23)N1CCCN1CCN(c2ccccc2F)CC1 ... 112 °C
CC1(C)Oc2ccc(C#N)cc2[C@@H](NC2=CC(=O)OC2)[C@@H]1O (relative stereo) ... 182 °C
Cc1cc2c(cc1Cl)C(Br)(c1ccccc1Cl)C(=O)N2 (stereo not given) ... 109 to 111 °C
O=C(O)C(O)=CC(=O)c1c(Cc2ccccc2)[nH]c2ccccc12 ... 165 to 167 °C
Cc1cc(C)cc(C(=O)N2CCC(N3CCC(C(=O)O)(c4ccccc4)CC3)CC2Cc2ccccc2)c1 (stereo not given) ... 259 °C
CC(=O)OC1CSC(Oc2ccc3nc(C)sc3c2)C(OC(C)=O)C1OC(C)=O (stereo not given) ... 160 °C
CCCN1CCO[C@@H]2c3cc(C(=O)N(C)C)ccc3CC[C@H]21 (relative stereo) ... 85 to 87 °C
CC(C)Oc1cc(CC(=O)O)c(F)cc1Cl ... 57 to 58 °C

Answer with the recorded melting point of Cc1ccc(CNC(=S)N2CCc3c([nH]c4ccccc34)C2c2ccc3c(c2)OCO3)cc1C (stereo not given) only. 138 to 142 °C

Answer with the recorded melting point of CC(C)(C)c1cc(C=Cc2n[nH]c(=O)o2)cc(C(C)(C)C)c1O only. > 260 °C

---

Reported values of melting point for individual entries

Sample records with melting point:
CC(C)COC[C@H](CC(C)C)NC(=O)[C@H]1O[C@@H]1C(=O)O ... 63 °C
COC(=O)c1ccc(-c2nc3ccc(C(=O)O)cc3[nH]2)cc1 ... 308 to 309 °C

Answer with the recorded melting point of O=C1NCCc2c(OCC3CO3)cccc21 (centres undefined) only. 165 to 166 °C

Answer with the recorded melting point of CC(C)c1nc(CN(C)C(=O)N[C@@H](C)C(=O)N[C@@H](Cc2ccccc2)C[C@H](O)[C@H](Cc2ccccc2)NC(=O)OCc2cncs2)cs1 only. 56 to 58 °C

Answer with the recorded melting point of CC1CCC(=NN)c2ncc(C(=O)NN)c(=O)n21 (centres undefined) only. 219 to 220 °C

Answer with the recorded melting point of CS(=O)(=O)c1ccc(-c2cc(O)sc2-c2ccc(F)cc2)cc1 only. 60 °C

Answer with the recorded melting point of CCCCCCCCCCCCC/C=C(/C(=O)Nc1ccc(C(=O)O)cc1)c1ccc2c(c1)C(C)(C)CCC2(C)C only. 59 to 60 °C

Answer with the recorded melting point of OCCOc1cn(-c2ccc(F)cc2)c2cc(Cl)ccc12 only. 97 to 98 °C

Answer with the recorded melting point of O=[N+]([O-])c1ccc2c(c1)CCN(Cc1ccccc1)C2 only. 76 to 78 °C
